Assay: Determination of the aqueous solubility of Forskolin (intrinsic solubility, HPLC)
Format: physicochemical
Conditions: thermodynamic from solid; water, stirred 48 hours, ambient temperature, 0.45 μm filtered; read-out: Content of Forskolin by HPLC (intrinsic solubility in water)
measured-endpoint: solubility at 48 h (µg/mL)
One number for each entry, in µg/mL.

Sure, the documented solubility at 48 h for C=C[C@@]1(C)CC(=O)[C@]2(O)[C@@]3(C)[C@@H](O)CCC(C)(C)[C@@H]3[C@H](O)[C@H](OC(C)=O)[C@@]2(C)O1 is 10
